Each recorded value in this set is attributed to patent US20250326708A1.

- System: 293T cells
- Assay Text: Fluorescence detection of Fluc-mRNA (transfection efficiency) of LNP preparations
- Type: cell-based
- Condition Description: Fluc-mRNA LNP, vs I-1
So basically, if Cellular transfection efficiency, times that of I-1 comes in under 30 times it's Met, and if it's 30 times or more it's Not met.

Say whether its Cellular transfection efficiency, times that of I-1 is strictly beneath 30 times. Entry: CCCCCCCCc1ccc(CCC(CO)(CO)NCCCCCCNC(=O)C(CCCCCC)CCCCCCCC)cc1 (centres unmarked) Met

Say whether its Cellular transfection efficiency, times that of I-1 is strictly beneath 30 times. Entry: `CCCCCCCCCCC(CCCCCCCCCC)CCCOC(=O)CCCNC(CO)(CO)CCc1ccc(CCCCCCCC)cc1` Met

Say whether its Cellular transfection efficiency, times that of I-1 is strictly beneath 30 times. Entry: `CCCCCCCCCCOC(=O)CCCN(CCCCCC(=O)OCCC(CCCCCC)CCCCCC)CCNC(CO)(CO)CCc1ccc(CCCCCCCC)cc1` Not met

Say whether its Cellular transfection efficiency, times that of I-1 is strictly beneath 30 times. Entry: CCCCCCCCCCC(CCCCCCCC)COC(=O)CCCCCNC(CO)(CO)CCc1ccc(CCCCCCCC)cc1 (centres unmarked) Met

Say whether its Cellular transfection efficiency, times that of I-1 is strictly beneath 30 times. Entry: `CCCCCCCCCCCOC(=O)CCCN(CCCCCCC(=O)OCCC(CCCCCC)CCCCCC)CCNC(CO)(CO)CCc1ccc(CCCCCCCC)cc1` Not met
